Target: BTK (Homo sapiens)
Assay: BTK degradation, DC50 and Dmax of Table 1 (cell line not given)
Type: cell-based
Set-up: endogenous in cells
Conditions: concentration giving 50% reduction of BTK expression level
Property: DC50; scope: individual compounds

Some compounds with recorded DC50:
compound: Nc1ncnc2c1c(-c1ccc(Oc3ccccc3)cc1)nn2C1CCN(CCOCCN2CCC(c3ccc4c(c3)C(=O)N(C3CCC(=O)NC3=O)C4=O)CC2)CC1 (stereo not drawn)
DC50: 10 to 50 nM

compound: Nc1ncnc2c1c(-c1ccc(Oc3ccccc3)cc1)nn2[C@@H]1CCCN(C2CCN(C(=O)N3CCC(CCCN4CCN(c5ccc6c(c5)C(=O)N(C5CCC(=O)NC5=O)C6=O)CC4)CC3)CC2)C1 (stereo partly drawn)
DC50: 10 to 50 nM

**Query** Endpoint output: DC50 of Nc1ncnc2c1c(-c1ccc(Oc3ccccc3)cc1)nn2C1CCN(CCOCCOCCN2CCN(c3ccc4c(c3)C(=O)N(C3CCC(=O)NC3=O)C4=O)CC2)CC1 (stereo not drawn) . Value?
**Result** 10 to 50 nM

----------
Biological target: BTK (Homo sapiens, UniProt Q06187)
Sequence (Q06187 whole entry): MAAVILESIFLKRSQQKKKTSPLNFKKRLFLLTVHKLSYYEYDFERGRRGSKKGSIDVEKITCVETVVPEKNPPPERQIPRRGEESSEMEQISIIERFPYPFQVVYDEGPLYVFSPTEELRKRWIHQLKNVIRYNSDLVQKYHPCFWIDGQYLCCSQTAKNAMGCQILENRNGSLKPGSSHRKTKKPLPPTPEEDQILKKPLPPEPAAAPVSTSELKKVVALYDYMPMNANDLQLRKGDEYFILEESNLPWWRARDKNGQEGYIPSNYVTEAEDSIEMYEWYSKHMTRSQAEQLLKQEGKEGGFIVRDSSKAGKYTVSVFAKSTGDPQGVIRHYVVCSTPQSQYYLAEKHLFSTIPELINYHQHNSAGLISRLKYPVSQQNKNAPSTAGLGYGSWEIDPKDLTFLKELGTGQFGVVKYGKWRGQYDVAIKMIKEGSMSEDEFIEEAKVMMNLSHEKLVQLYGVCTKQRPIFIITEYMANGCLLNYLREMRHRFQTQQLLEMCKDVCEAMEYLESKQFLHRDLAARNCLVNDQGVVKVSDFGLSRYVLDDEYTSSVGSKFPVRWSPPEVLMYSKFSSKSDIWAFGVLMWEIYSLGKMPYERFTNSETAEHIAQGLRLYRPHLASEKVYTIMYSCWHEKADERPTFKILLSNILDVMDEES
Assay: Degradation of BTK protein in Namalwa cells (Western blot; DC50, Dmax)
property: Dmax

Consider the worked cases shown below.
molecule: Nc1ncnc2c1c(-c1ccc(Oc3ccccc3)cc1)nn2C1CCN(C2CCN(C(=O)N3CCC(c4ccc5c(c4)CN(C4CCC(=O)NC4=O)C5=O)CC3)CC2)CC1 (centres unmarked) [Compound 228]
Dmax: > 50%

molecule: Nc1ncnc2c1c(-c1ccc(Oc3ccccc3)cc1)nn2C1CCN(C2CCN(CCCN3CCC(c4ccc5c(c4)CN(C4CCC(=O)NC4=O)C5=O)CC3)CC2)CC1 (centres unmarked) [Compound 224]
Dmax: > 75%

molecule: NC(=O)c1c(-c2ccc(Oc3ccccc3)cc2)nn2c1NCC[C@H]2C1CCN(CCOCCOCCN2CCN(c3ccc4c(c3)CN(C3CCC(=O)NC3=O)C4=O)CC2)CC1 (some centres unmarked) [Compound 272]
Dmax: > 90%

molecule: Nc1ncnc2c1c(-c1ccc(Oc3ccccc3)cc1)nn2C1CCN(C2CCN(C(=O)N3CCN(c4ccc5c(c4)C(=O)N(C4CCC(=O)NC4=O)C5=O)CC3)CC2)CC1 (centres unmarked) [Compound 229]
Dmax: > 50%

// switching to the query molecule
**Query** Hi! What's the reported Dmax for NC(=O)c1c(-c2ccc(Oc3ccccc3)cc2)nn2c1NCCC2C1CCN(C(=O)N2CCN(CCC3CCN(c4ccc5c(c4)C(=O)N(C4CCC(=O)NC4=O)C5=O)CC3)CC2)CC1 (centres unmarked) [Compound 283] on BTK (Homo sapiens, UniProt Q06187)?
**Result** > 75%

----------
Listed molecules paired with reported DC50
Biological target: BTK (Homo sapiens)
Experiment: Degradation of BTK protein in Namalwa cells (Western blot; DC50, Dmax)
Conditions: read-out: DC50 (BTK degradation); concentration giving 50% reduction of BTK expression level; cell line not given

Solved entries:
molecule: Nc1ncnc2c1c(-c1ccc(Oc3ccccc3)cc1)nn2C1CCN(CCN2CCC(CSc3ccc4c(c3)CN(C3CCC(=O)NC3=O)C4=O)C2)CC1 (stereo not drawn)
property: DC50
obs-value: < 10 nM

molecule: Nc1ncnc2c1c(-c1ccc(Oc3ccccc3)cc1)nn2[C@@H]1CCCN(C(=O)NCCN2CCN(c3ccc4c(c3)C(=O)N(C3CCC(=O)NC3=O)C4=O)CC2)C1 (stereo partly drawn)
property: DC50
obs-value: < 10 nM

Now, please, on to the next molecule.
**Query** Any idea what DC50 was measured for Nc1ncnc2c1c(-c1ccc(Oc3ccccc3)cc1)nn2C1CCN(CC2CCN(CCCN3CCN(c4ccc(N5CCC(=O)NC5=O)cc4)CC3)CC2)CC1 ?
**Result** 10 to 50 nM
